# protocol_text: self-splicing fitness, log relative to wild type (ln ratio); higher = more splicing; Tetrahymena group I intron in knt gene, E. coli kanamycin selection, DiMSum; sequences stand for … in CUCUCU…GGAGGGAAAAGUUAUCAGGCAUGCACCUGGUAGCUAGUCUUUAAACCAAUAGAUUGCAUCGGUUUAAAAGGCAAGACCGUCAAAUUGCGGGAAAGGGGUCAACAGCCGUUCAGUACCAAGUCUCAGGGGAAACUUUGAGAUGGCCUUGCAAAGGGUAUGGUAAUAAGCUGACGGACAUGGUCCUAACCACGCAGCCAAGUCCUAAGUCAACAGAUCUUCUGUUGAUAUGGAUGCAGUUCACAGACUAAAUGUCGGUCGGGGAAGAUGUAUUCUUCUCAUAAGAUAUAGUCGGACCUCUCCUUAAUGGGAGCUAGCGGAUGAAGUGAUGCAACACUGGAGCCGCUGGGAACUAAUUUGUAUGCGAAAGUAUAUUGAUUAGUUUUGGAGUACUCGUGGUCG;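 further: selection with 25 µg/mL kanamycin versus none on LB agar overnight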
# conditions: 37 °C
Class (by self-splicing fitness (ln)) -- zone 1: < -2; zone 2: ≥ -2 and < -0.5; zone 3: ≥ -0.5

The following sequences have reported results that may help.
sequence_text: GGUUAGCAAUAUUACGUGAG
assigned_category: zone 3

sequence_text: CCCCAGCAAUAUUACGUUGU
assigned_category: zone 1

sequence_text: CCGCAGCAAUAUUACGUUUU
assigned_category: zone 1

sequence_text: UCCAAGCAAUAUUACGGAUU
assigned_category: zone 1

sequence_text: GAUGAGCAAUAUUACGUUGG
assigned_category: zone 1

Just checking, what class would you give `UUGCAGCAAUAUUACGACCA` here?
zone 3

Item: `GGCUAGCAAUAUUACGUUAU`
zone 3

Queued: `CUAAAGCAAUAUUACGAGUU`
zone 2

Item: `AAAUAGCAAUAUUACGUAAC`
zone 3

Try this sequence next: `UUCAAGCAAUAUUACGACCA`
zone 3
